tested on: K562 chronic myeloid leukemia cells; experiment: MTT cell proliferation assay; format: cell-based, human; settings: K562; MTT, 72 h; read-out: IC50 values and 95% confidence limits (lower, upper)
readout.label: pIC50
Worth noting: pIC50 values are minus log10 of concentrations stated in mol/L.

Enquiry: Report pIC50 for O=C(/C=C/c1ccccc1)c1ccc(O)cc1O [Compound 1, 2′,4′-dihydroxychalcone]
Return: 4.56

###

test system: Enterococcus faecalis (ATCC 29212)
Where a name gives a salt, the structure may show the parent alone.
readout.label: MIC

>>> measured("COc1cc(C2CC(=O)c3ccc(O)cc3O2)ccc1O (stereo not drawn) [Compound 5, 7,4′-dihydroxy-3′-methoxyflavanone]")
"500 µg/mL"
>>> measured("O=C(/C=C/c1ccccc1)c1ccc(O)cc1O [Compound 1, 2′,4′-dihydroxychalcone]")
"62 µg/mL"
>>> measured("CC[C@H]1OC(=O)[C@H](C)[C@@H](O[C@H]2C[C@@](C)(OC)[C@@H](O)[C@H](C)O2)[C@H](C)[C@@H](O[C@@H]2O[C@H](C)C[C@H](N(C)C)[C@H]2O)[C@](C)(O)C[C@@H](C)C(=O)[C@H](C)[C@@H](O)[C@]1(C)O [Erythromycin, erythromycin, reference compound]")
"1 µg/mL"
>>> measured("O=C(/C=C/c1ccc(O)cc1)c1ccc(O)cc1O [Compound 2, isoliquiritigenin]")
"500 µg/mL"
>>> measured("CNC(C)C1CCC(N)C(OC2C(N)CC(N)C(OC3OCC(C)(O)C(NC)C3O)C2O)O1 (stereo not drawn) [Gentamicin, Gentamicin sulfate, reference compound]")
"8 µg/mL"

// below: MIC requested for another compound
Enquiry: Recall and state the measured MIC for O=C1C[C@@H](c2ccccc2)Oc2cc(O)cc(O)c21 [Compound 3, pinocembrin] .
Return: 62 µg/mL
